Biological target: RAF proto-oncogene serine/threonine-protein kinase [Y340E,Y341E] (Human, UniProt P04049, Y340E/Y341E)
Sequence (P04049 whole entry Y340E/Y341E): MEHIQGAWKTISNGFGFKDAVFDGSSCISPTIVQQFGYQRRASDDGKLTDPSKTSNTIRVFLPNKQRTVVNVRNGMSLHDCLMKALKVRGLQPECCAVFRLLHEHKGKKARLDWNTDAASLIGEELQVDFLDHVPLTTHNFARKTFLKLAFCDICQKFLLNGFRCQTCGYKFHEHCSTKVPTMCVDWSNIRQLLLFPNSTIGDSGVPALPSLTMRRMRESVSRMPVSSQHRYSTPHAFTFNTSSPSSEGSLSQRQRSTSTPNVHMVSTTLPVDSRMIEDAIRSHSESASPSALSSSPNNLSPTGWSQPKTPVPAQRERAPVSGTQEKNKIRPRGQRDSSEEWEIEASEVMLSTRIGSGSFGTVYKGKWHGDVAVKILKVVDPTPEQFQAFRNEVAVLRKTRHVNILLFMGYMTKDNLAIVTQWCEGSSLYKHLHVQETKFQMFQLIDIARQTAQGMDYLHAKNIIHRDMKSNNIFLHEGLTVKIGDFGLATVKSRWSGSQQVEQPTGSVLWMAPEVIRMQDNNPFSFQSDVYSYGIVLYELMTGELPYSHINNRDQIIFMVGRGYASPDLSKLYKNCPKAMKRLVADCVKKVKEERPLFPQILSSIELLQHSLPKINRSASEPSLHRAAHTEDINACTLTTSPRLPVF
Assay: Biological Assays
pIC50: −log10 of the molar value.
PROPERTY LABEL: pIC50

{"COMPOUND": "Cc1ccc(NC(=O)c2ccnc(C(F)(F)F)c2)cc1-c1cnc2c(c1)[C@@H]1CCOC[C@H]1C(=O)N2CCO [US10377770, Example 258]", "OBSERVED RESULT": "> 10.00"}
{"COMPOUND": "CCN1C(=O)[C@@H]2COCC[C@H]2c2cc(-c3cc(NC(=O)c4cnnc(C(F)(F)F)c4)ccc3C)cnc21 [US10377770, Example 257]", "OBSERVED RESULT": "> 10.00"}
{"COMPOUND": "CCN1C(=O)[C@@H]2COCCN2c2cc(-c3cc(NC(=O)c4ccnc(C(F)(F)F)c4)ccc3C)nnc21 [US10377770, Example 133]", "OBSERVED RESULT": 10.96}
{"COMPOUND": "CCN1C(=O)OC2COCCC2c2cc(-c3cc(NC(=O)c4cnnc(C(F)(F)F)c4)ccc3C)cnc21 (stereo not drawn) [US10377770, Example 301]", "OBSERVED RESULT": "> 10.00"}
{"COMPOUND": "Cc1ccc(NC(=O)c2cccc(C(F)(F)F)n2)cc1-c1ccc2c(c1)N1CCOC[C@H]1[C@](F)(CO)C2 [US10377770, Example 389]", "OBSERVED RESULT": 9.30}
{"COMPOUND": "Cc1ccc(NC(=O)c2ccnc(C(F)(F)F)c2)cc1-c1cnc2c(c1)C1CCOCCC1C(=O)N2CCO (stereo not drawn) [US10377770, Example 284]", "OBSERVED RESULT": "> 10.00"}
{"COMPOUND": "Cc1ccc(NC(=O)c2ccnc(C(F)(F)F)c2)cc1-c1cnc2c(c1)N1CCOC[C@H]1CC(=O)N2CCO [US10377770, Example 333]", "OBSERVED RESULT": "> 10.00"}
{"COMPOUND": "CCN1C(=O)OC2COCCC2c2cc(-c3cc(NC(=O)c4ccnc(C(F)(F)F)c4)ccc3C)cnc21 (stereo not drawn) [US10377770, Example 297]", "OBSERVED RESULT": 9.05}
